Biological target: microsomal triglyceride transfer protein (MTP) (Mesocricetus auratus)
Sequence (P55158 19-895): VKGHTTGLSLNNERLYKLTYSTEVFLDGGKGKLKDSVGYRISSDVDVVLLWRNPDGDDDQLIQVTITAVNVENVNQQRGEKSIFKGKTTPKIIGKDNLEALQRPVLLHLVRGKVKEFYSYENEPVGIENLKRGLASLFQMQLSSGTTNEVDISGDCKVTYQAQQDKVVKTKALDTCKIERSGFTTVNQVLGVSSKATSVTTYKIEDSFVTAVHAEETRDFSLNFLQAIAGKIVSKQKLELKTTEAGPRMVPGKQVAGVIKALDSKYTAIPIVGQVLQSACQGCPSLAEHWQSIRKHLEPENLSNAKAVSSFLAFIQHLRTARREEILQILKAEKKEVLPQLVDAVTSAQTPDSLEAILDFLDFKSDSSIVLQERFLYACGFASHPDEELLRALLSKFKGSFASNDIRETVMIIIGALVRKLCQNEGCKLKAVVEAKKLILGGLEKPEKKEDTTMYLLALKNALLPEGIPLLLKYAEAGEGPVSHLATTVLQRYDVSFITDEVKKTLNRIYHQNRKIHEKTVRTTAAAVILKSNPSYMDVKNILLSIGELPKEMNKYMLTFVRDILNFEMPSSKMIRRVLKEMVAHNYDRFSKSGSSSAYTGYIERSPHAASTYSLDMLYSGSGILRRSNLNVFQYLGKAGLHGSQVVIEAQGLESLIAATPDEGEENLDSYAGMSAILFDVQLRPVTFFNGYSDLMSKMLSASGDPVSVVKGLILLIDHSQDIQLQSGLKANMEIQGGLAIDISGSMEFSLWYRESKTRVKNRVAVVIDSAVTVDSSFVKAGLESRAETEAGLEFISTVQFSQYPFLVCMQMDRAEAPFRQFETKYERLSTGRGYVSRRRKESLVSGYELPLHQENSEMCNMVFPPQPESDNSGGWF
Sequence (Q8R4U2 20-509 partner): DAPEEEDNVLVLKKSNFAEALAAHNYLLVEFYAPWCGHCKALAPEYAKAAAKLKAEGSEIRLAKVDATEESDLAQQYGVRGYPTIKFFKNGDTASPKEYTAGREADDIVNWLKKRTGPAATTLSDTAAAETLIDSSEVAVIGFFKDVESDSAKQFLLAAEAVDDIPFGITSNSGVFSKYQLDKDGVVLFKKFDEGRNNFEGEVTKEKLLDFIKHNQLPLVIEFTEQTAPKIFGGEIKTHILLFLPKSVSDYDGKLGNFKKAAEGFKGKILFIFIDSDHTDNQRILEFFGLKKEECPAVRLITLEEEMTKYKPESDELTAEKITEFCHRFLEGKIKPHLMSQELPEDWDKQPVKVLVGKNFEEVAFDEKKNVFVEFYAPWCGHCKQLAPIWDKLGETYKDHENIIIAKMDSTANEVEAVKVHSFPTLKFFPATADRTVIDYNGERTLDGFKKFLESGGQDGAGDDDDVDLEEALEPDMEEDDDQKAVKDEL
pIC50: −log10 of the molar value.
endpoint name: pIC50

[
  {
    "smiles notation": "COc1cccc(C(=O)Nc2ccc3c(c2)OC(F)(F)O3)c1-c1ccc(OC(F)(F)F)cc1",
    "reading": 6.71
  }
]

(I) CC(C)c1ccc(-c2ccccc2C(=O)Nc2ccc3c(c2)OC(F)(F)O3)cc1
(II) Cc1cccc(-c2ccc(OC(F)(F)F)cc2)c1C(=O)Nc1ccc2c(c1)OC(F)(F)O2
[ask] Between the entries labelled I and II , which has a larger pIC50 value on record? Answer by quoting the chosen item's label.
[reply] II
(II: 6.87, I: 6.64)
